# Tested on: E. coli ATCC 11775
# ASSAY PROTOCOL: CFU assay of antimicrobial activity
# Assay type: cell-based, Escherichia coli
# CONDITIONS USED: 10 mM NaP, pH 5.5, 1% TSB
TEST READOUT: LD90 (µg/mL)
Reply with just the number (in µg/mL).

SUBSTANCE | TEST READOUT | UNIT ABBREV | MEASURED VALUE
rHRNR2656–2684: recombinant HRNR fragment (GRHGSGLGHSSSHGQHGSGSGRSSSRGPY; UniProt Q86YZ3 2656-2684, looked up, fragment) | LD90 | µg/mL | 3.1

Please examine the following record next.
# substance rHRNR2638–2684: recombinant HRNR fragment (QSSGHGRQGSGSGQSPSRGRHGSGLGHSSSHGQHGSGSGRSSSRGPY; UniProt Q86YZ3 2638-2684, looked up, fragment) ; its LD90 = 3.1

----------
# Test system: Staphylococcus aureus ATCC 43300
# CONDITIONS USED: MRSA; CLSI, Mueller–Hinton broth, 5 × 10^5 CFU/mL, 18 h 37 °C, by CO-ADD
Peptide text beside a SMILES is read from it. * marks the point of attachment. Palmitoyl = CCCCCCCCCCCCCCCC(=O)*
Listing: Minimal inhibitory concentration (MIC) of selected compounds
In your response, put the unit directly after the numeric value.

The following compounds have reported results that may help.
COMPOUND | Minimal inhibitory concentration (MIC)
N=C(N)NCCC[C@H](NC(=O)[C@H](CCCNC(=N)N)NC(=O)[C@H](CS)NC(=O)[C@H](CCCNC(=N)N)NC(=O)[C@H](Cc1c[nH]cn1)NC(=O)[C@H](CO)NC(=O)[C@H](CCCNC(=N)N)NC(=O)[C@H](CS)NC(=O)[C@H](CS)NC(=O)[C@H](CCCNC(=N)N)NC(=O)[C@H](Cc1c[nH]cn1)NC(=O)[C@H](Cc1c[nH]cn1)NC(=O)[C@@H](N)CO)C(=O)O [LCE-3B56-68] (H-SHHRCCRSHRCRR-OH) | 32 µg/mL
CCCCCCCCCCCCCCCC(=O)NCC(=O)N[C@@H](CCCNC(=N)N)C(=O)N[C@@H](CCCNC(=N)N)C(=O)NCC(=O)N[C@@H](CO)C(=O)NCC(=O)N[C@@H](CC(C)C)C(=O)NCC(=O)N[C@@H](CCCNC(=N)N)C(=O)N[C@@H](CO)C(=O)N[C@@H](CO)C(=O)N[C@@H](CO)C(=O)N[C@@H](CCCNC(=N)N)C(=O)O [Pal-HR 1-18-3H3R-GR13] (Palmitoyl-GRRGSGLGRSSSR-OH) | 16 µg/mL

# compound CCCCCCCCCCCCCCCC(=O)N[C@@H](CCCNC(=N)N)C(=O)NCC(=O)N[C@@H](CO)C(=O)N[C@@H](CCCNC(=N)N)C(=O)N[C@@H](CO)C(=O)NCC(=O)N[C@@H](CCC(N)=O)C(=O)N[C@@H](CO)C(=O)N[C@@H](CO)C(=O)N[C@@H](CCCNC(=N)N)C(=O)NCC(=O)N[C@@H](CCC(=O)O)C(=O)N[C@@H](CCCNC(=N)N)C(=O)N[C@@H](CCCNC(=N)N)C(=O)O [Pal-HR-1-11-2H2R-14] (Palmitoyl-RGSRSGQSSRGERR-OH) ; its Minimal inhibitory concentration (MIC) = 8 µg/mL

----------
# Tested on: P. aeruginosa ATCC 10145
# CONDITIONS USED: CFU assay, 10 mM NaP, pH 5.5, 0.25% glucose
Ends that are not written are not given here.
TEST READOUT: LD100 (µg/mL)
Reply with just the number (in µg/mL).

# sequence HTHSGHTHGQAGSHYPESGSSVHER [FLG-21969-1993] ; its LD100 = 0.3

# sequence HGQSTQRGSRTAGRRGSGH [FLG-22087-2105] ; its LD100 = 1.18

# sequence THEHEQSHQRRDRQTHEDKQNRQR [RPTN747-770] ; its LD100 = 150

# sequence SLSSGHGSGHGHQRGGHRSGSG [scr-HR 1-18] ; its LD100 = 0.15

# sequence HAHYGYGQSTQRGSRTTGRRGSGH [FLG-22232-2255] ; its LD100 = 0.59

----------
# System: P. aeruginosa ATCC 10145
# CONDITIONS USED: CFU assay, 10 mM NaP, pH 5.5, 0.25% glucose
Ends that are not written are not given here.
Listing: LD100 of selected sequences

The following sequences have reported results that may help.
SEQ TEXT | LD100
TAGRRGSGH [FLG-22097-2105] | > 300 µg/mL
GRHGSGLGHSSSHGQHGSGSGRSSSGGPY [HR 1-17R3-G] | 0.15 to 0.3 µg/mL
LGHSSSHGQHGSGSGRSSSRGPYESRLGH [HR 1-36] | 2.35 µg/mL
QSGTHHAENSSGGQAASSHEQAR [FLG2301-2323] | 300 µg/mL
HTHSGHTHGQARSQHGESESIVHER [FLG-21742-1766] | 0.15 µg/mL

# sequence GSRTAGRRGSGH [FLG-22094-2105] ; its LD100 = > 300 µg/mL

# sequence RGSGSGHQGHSSSHGLGSGHRG [rev-HR 1-18] ; its LD100 = 0.3 µg/mL

# sequence GRHGSGSGHSSSHGQHGSGSGR [HRNR2186-2207] ; its LD100 = 4.7 to 9.37 µg/mL

----------
Listing: Minimal inhibitory concentration (MIC) of selected molecules
# Test system: Acinetobacter baumannii ATCC 19606
# ASSAY PROTOCOL: CO-ADD MIC, broth microdilution (CLSI)
# Assay type: cell-based
# CONDITIONS USED: Mueller–Hinton broth, 5 × 10^5 CFU/mL, 18 h 37 °C, by CO-ADD
Square brackets hold non-standard residues; d marks the D form. Peptide text beside a SMILES is read from it. * marks the point of attachment. Palmitoyl = CCCCCCCCCCCCCCCC(=O)*; Dab = NCC[C@H](N)C(=O)O; Dap = NC[C@H](N)C(=O)O

MOLECULE | Minimal inhibitory concentration (MIC)
CCCCCCCCCCCCCCCC(=O)NCC(=O)N[C@@H](CN)C(=O)NCC(=O)N[C@@H](CN)C(=O)O [Pal-G-Dap4] (Palmitoyl-G[Dap]G[Dap]-OH) | >32 µg/mL
CCCCCCCCCCCCCCCC(=O)N[C@@H](CO)C(=O)N[C@@H](Cc1c[nH]cn1)C(=O)N[C@@H](Cc1c[nH]cn1)C(=O)N[C@@H](CCCNC(=N)N)C(=O)N[C@@H](CS)C(=O)N[C@@H](CS)C(=O)N[C@@H](CCCNC(=N)N)C(=O)N[C@@H](CO)C(=O)N[C@@H](Cc1c[nH]cn1)C(=O)N[C@@H](CCCNC(=N)N)C(=O)N[C@@H](CS)C(=O)N[C@@H](CCCNC(=N)N)C(=O)N[C@@H](CCCNC(=N)N)C(=O)O [Pal-LCE-3B56–68] (Palmitoyl-SHHRCCRSHRCRR-OH) | >32 µg/mL
CCCCCCCCCCCCCCCC(=O)NCC(=O)N[C@@H](CCCNC(=N)N)C(=O)N[C@@H](CCCNC(=N)N)C(=O)NCC(=O)NCC(=O)N[C@@H](CCCNC(=N)N)C(=O)NCC(=O)NCC(=O)N[C@@H](CCCNC(=N)N)C(=O)O [Pal-GR9] (Palmitoyl-GRRGGRGGR-OH) | >32 µg/mL
CCCCCCCCCCCCCCCC(=O)NCC(=O)N[C@@H](CCCNC(=N)N)C(=O)NCC(=O)N[C@@H](CCCNC(=N)N)C(=O)O [Pal-GR4] (Palmitoyl-GRGR-OH) | >32 µg/mL
CCCCCCCCCCCCCCCC(=O)NCC(=O)N[C@@H](CCCNC(=N)N)C(=O)N[C@@H](CCCNC(=N)N)C(=O)NCC(=O)NCC(=O)N[C@@H](CCCNC(=N)N)C(=O)O [Pal-GR6] (Palmitoyl-GRRGGR-OH) | >32 µg/mL

# molecule N=C(N)NCCC[C@H](NC(=O)[C@H](CCCNC(=N)N)NC(=O)[C@H](CS)NC(=O)[C@H](CCCNC(=N)N)NC(=O)[C@H](Cc1c[nH]cn1)NC(=O)[C@H](CO)NC(=O)[C@H](CCCNC(=N)N)NC(=O)[C@H](CS)NC(=O)[C@H](CS)NC(=O)[C@H](CCCNC(=N)N)NC(=O)[C@H](Cc1c[nH]cn1)NC(=O)[C@H](Cc1c[nH]cn1)NC(=O)[C@@H](N)CO)C(=O)O [LCE-3B56-68] (H-SHHRCCRSHRCRR-OH) ; its Minimal inhibitory concentration (MIC) = >32 µg/mL

# molecule CCCCCCCCCCCCCCCC(=O)NCC(=O)N[C@H](CCCNC(=N)N)C(=O)N[C@H](CCCNC(=N)N)C(=O)NCC(=O)NCC(=O)N[C@H](CCCNC(=N)N)C(=O)NCC(=O)NCC(=O)N[C@H](CCCNC(=N)N)C(=O)NCC(=O)N[C@H](CCCNC(=N)N)C(=O)NCC(=O)N[C@H](CCCNC(=N)N)C(=O)O [(D)-Pal-GR13] (Palmitoyl-G[dR][dR]GG[dR]GG[dR]G[dR]G[dR]-OH; C-terminus assumed) ; its Minimal inhibitory concentration (MIC) = 8 µg/mL

# molecule CCCCCCCCCCCCCCCC(=O)N[C@@H](CO)C(=O)N[C@@H](Cc1c[nH]cn1)C(=O)N[C@@H](Cc1c[nH]cn1)C(=O)N[C@@H](CCCNC(=N)N)C(=O)N[C@@H](Cc1c[nH]cn1)C(=O)N[C@@H](Cc1ccccc1)C(=O)N[C@@H](CCCNC(=N)N)C(=O)N[C@@H](CO)C(=O)N[C@@H](Cc1c[nH]cn1)C(=O)N[C@@H](CCC(N)=O)C(=O)N[C@@H](CS)C(=O)N[C@@H](CCCNC(=N)N)C(=O)N[C@@H](CCCNC(=N)N)C(=O)O [Pal-LCE-3C55-67] (Palmitoyl-SHHRHFRSHQCRR-OH) ; its Minimal inhibitory concentration (MIC) = >32 µg/mL

# molecule CCCCCCCCCCCCCCCC(=O)NCC(=O)N[C@@H](CCCNC(=N)N)C(=O)N[C@@H](CCCNC(=N)N)C(=O)NCC(=O)N[C@@H](CO)C(=O)NCC(=O)N[C@@H](CC(C)C)C(=O)NCC(=O)N[C@@H](CCCNC(=N)N)C(=O)N[C@@H](CO)C(=O)N[C@@H](CO)C(=O)N[C@@H](CO)C(=O)N[C@@H](CCCNC(=N)N)C(=O)O [Pal-HR 1-18-3H3R-GR13] (Palmitoyl-GRRGSGLGRSSSR-OH) ; its Minimal inhibitory concentration (MIC) = 16 µg/mL

# molecule CCCCCCCCCCCCCCCC(=O)NCC(=O)N[C@@H](CCN)C(=O)NCC(=O)N[C@@H](CCN)C(=O)O [Pal-G-Dab4] (Palmitoyl-G[Dab]G[Dab]-OH) ; its Minimal inhibitory concentration (MIC) = 32 µg/mL
